test: AUC (0 to infinity) in Sprague-Dawley rat at 10 mg/kg, iv; assay type: ADME, organism-based; design: time infinity, dose 10 mg/kg, route intravenous; details: plasma
Overview of reported AUC(0-inf) across a group of molecules:
Lab book: enter the figure in ng·h/mL, no units written.

# count of solved cases: 3
>>> df
                        structure_as_smiles  measurement_kind  result_number
0  O=C1O[C@@H](Cn2ccnn2)CN1c1ccc(N2CCN(Cc3ccc([N+](=O)[O-])o3)CC2)c(F)c1        AUC(0-inf)          18900
1  O=C1O[C@@H](Cn2ccnn2)CN1c1ccc(N2CCN(Cc3ccoc3)CC2)c(F)c1        AUC(0-inf)          26200
2  Nc1ccc(CN2CCN(c3ccc(N4C[C@H](Cn5ccnn5)OC4=O)cc3F)CC2)cc1        AUC(0-inf)           7080

[ask] Looking for the measured AUC(0-inf) of `O=C1O[C@@H](Cn2ccnn2)CN1c1ccc(N2CCN(Cc3cccc([N+](=O)[O-])c3)CC2)c(F)c1` , can you help?
[reply] 26200
